assay: Pharmacokinetic analysis, plasma and brain; assay type: in vivo, ICR (CD-1) male mice; details: male, ICR (CD-1), mouse, brain, po, 30 mg/Kg, P.O., Time 8 h, individual animals; read-out: B/P, Brian/Plasma
MEASUREMENT KIND: Kp at 8 h

1) CC(=O)Nc1ccc(C2=Nc3ccc(Cl)cc3OC2)cc1 [CA77]
117

From here, focus on the item given below.
Query :: Give the measured Kp at 8 h of Clc1ccc2c(c1)OCC(c1ccc(-c3ccccc3)cc1)=N2 [CA39] .
Result :: 16.6

====

assay: Pharmacokinetic analysis, plasma and brain; type: in vivo, ICR (CD-1) male mice; details: male, ICR (CD-1), mouse, brain, po, 30 mg/Kg, P.O., Time 0.5 h, individual animals; read-out: B/P, Brian/Plasma
MEASUREMENT KIND: Kp at 0.5 h
Numbers only.

Parameter requested: Kp at 0.5 h. Apply to each item below.
1. CC(=O)Nc1ccc(C2=Nc3ccc(Cl)cc3OC2)cc1
2. Clc1ccc2c(c1)OCC(c1ccc(-c3ccccc3)cc1)=N2

Result ::
122
1.82
